- Experimental system: Retinoic acid receptor RXR-alpha (Homo sapiens, UniProt P19793)
- Sequence (P19793 whole entry, the tested form may be a part): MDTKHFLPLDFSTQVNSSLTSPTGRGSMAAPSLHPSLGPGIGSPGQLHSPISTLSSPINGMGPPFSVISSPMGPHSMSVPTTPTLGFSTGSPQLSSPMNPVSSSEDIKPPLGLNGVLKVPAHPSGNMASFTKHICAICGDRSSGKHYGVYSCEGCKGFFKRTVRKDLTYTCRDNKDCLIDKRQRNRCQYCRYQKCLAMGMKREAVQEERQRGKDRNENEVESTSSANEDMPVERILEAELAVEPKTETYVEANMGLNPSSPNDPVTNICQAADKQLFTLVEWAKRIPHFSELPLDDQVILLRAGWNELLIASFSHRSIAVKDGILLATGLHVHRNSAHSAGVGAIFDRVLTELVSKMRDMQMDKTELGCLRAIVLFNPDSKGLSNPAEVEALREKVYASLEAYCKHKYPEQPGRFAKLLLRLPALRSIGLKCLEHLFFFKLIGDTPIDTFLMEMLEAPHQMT
- Assay method text: Agonist activity at human GAL4-fused RXRalpha LBD expressed in human HEK293T cells cotransfected with pFR-Luc and pRL-SV40 assessed as increase in luciferase activity incubated for 16 hrs by Dual-Glo luciferase assay
Response field label takes y when EC50 is strictly below 2000 nM and n in all other cases.

Example cases with answers are listed next.
[
  {
    "Smiles record": "O=C(O)CCc1ccc(COc2cccc3c2CCC3)cc1",
    "Experimental system": "Retinoic acid receptor RXR-alpha (Homo sapiens, UniProt P19793)",
    "Label": "y"
  },
  {
    "Smiles record": "Cc1cc(COc2cccc3c2CCC3)ccc1CC(=O)O",
    "Experimental system": "Retinoic acid receptor RXR-alpha (Homo sapiens, UniProt P19793)",
    "Label": "n"
  }
]

Here's an entry: O=C(O)c1ccc(COc2cccc3c2CCC3)cc1 . Is its EC50 below 2000 nM?
y

Here's an entry: Cc1ccc(OCc2ccc(CCC(=O)O)c(Cl)c2)c2c1CCC2 . Is its EC50 below 2000 nM?
n

Here's an entry: Cc1cc(COc2cccc3c2CCC3)ccc1C(=O)O . Is its EC50 below 2000 nM?
n

Here's an entry: O=C(O)c1ccc(CNc2cccc3c2CCC3)cc1 . Is its EC50 below 2000 nM?
n

Here's an entry: O=C(O)CCc1ccc(COc2cccc3c2CCC3)cc1F . Is its EC50 below 2000 nM?
n

Here's an entry: Cc1cc(COc2ccc(C)c3c2CCC3)ccc1CCC(=O)O . Is its EC50 below 2000 nM?
y

Here's an entry: CN(Cc1ccc(C(=O)O)cc1)c1cccc2c1CCC2 . Is its EC50 below 2000 nM?
n

====

- Experimental system: Retinoic acid receptor RXR-gamma (Homo sapiens, UniProt P48443)
- Sequence (P48443 whole entry): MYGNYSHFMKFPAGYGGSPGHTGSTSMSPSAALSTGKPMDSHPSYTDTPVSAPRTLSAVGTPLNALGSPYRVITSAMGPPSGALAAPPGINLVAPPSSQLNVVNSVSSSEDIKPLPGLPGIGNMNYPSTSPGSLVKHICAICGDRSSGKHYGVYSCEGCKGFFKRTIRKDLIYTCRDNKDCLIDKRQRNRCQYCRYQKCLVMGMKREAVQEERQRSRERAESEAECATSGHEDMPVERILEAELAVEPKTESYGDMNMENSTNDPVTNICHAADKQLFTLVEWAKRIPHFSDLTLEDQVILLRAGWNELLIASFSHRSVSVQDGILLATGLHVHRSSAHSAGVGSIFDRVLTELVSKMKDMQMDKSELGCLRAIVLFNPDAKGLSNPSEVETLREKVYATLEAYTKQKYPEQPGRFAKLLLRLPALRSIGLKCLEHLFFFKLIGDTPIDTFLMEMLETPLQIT
- Assay method text: Agonist activity at human GAL4-fused RXRgamma LBD expressed in human HEK293T cells cotransfected with pFR-Luc and pRL-SV40 assessed as increase in luciferase activity incubated for 16 hrs by Dual-Glo luciferase assay
pEC50: −log10 of the molar value.
Label NOT MET if pEC50 falls below 5; label MET in every other case.

[
  {
    "Smiles record": "O=C(O)CCc1ccc(COc2cccc3c2CCC3)cc1",
    "Label": "MET"
  }
]

Reported pEC50 reaches at least 5 for Cc1ccc(OCc2ccc(C(=O)O)cc2)c2c1CCC2 ?
MET

Reported pEC50 reaches at least 5 for CN(Cc1ccc(C(=O)O)cc1)c1cccc2c1CCC2 ?
NOT MET

Reported pEC50 reaches at least 5 for Cc1ccc(OCc2ccc(CCC(=O)O)c(F)c2)c2c1CCC2 ?
NOT MET
